Target: TYK2 (Homo sapiens)
Test: TYK2 degradation MSD assay in EBV-B cells
Type: cell-based
Design: endogenous in cells; host or cells: EBV-B cells
Settings: 4 to 24 hours incubation, read-out: TYK2 MSD DC50 rating in EBV-B
Listed here are compounds together with their documented DC50.

Solved cases (6 shown):
CNc1cc(Nc2cccn(-c3ccc(C(=O)NCCOCCOCCOCCOCCc4ccc5c(c4)n(C)c(=O)n5C4CCC(=O)NC4=O)cn3)c2=O)nn2c(C(=O)N[C@@H]3C[C@@H]3F)cnc12 (stereo partly shown)
> 100 nM
CNC(=O)c1cnc(Nc2ccc(C(=O)NCCCCc3ccc4c(c3)n(C)c(=O)n4C3CCC(=O)NC3=O)cn2)cc1Nc1cccc(-c2ncc(F)cn2)c1OC (stereo not shown)
> 100 nM
CNc1cc(Nc2cccc(-c3ccc(CN4CCN(c5cccc6c5n(C)c(=O)n6C5CCC(=O)NC5=O)CC4)cn3)c2)nn2c(C(=O)N[C@@H]3C[C@@H]3F)cnc12 (stereo partly shown)
> 100 nM
CNc1cc(N(C)c2cccc(-c3ccc(CN4CCN(c5ccc(-c6ccc7c(c6)n(C)c(=O)n7C6CCC(=O)NC6=O)cc5)CC4)cn3)c2)nn2c(C(=O)N[C@@H]3C[C@@H]3F)cnc12 (stereo partly shown)
> 100 nM
CNc1cc(Nc2cccc(N3CCC(CN4CCC(C#Cc5cccc6c5n(C)c(=O)n6C5CCC(=O)NC5=O)CC4)CC3)c2)nn2c(C(=O)N[C@@H]3C[C@@H]3F)cnc12 (stereo partly shown)
> 100 nM
CNc1cc(Nc2cccc(-c3ccc(CN4CCN(c5ccc(-c6ccc7c(c6)n(C)c(=O)n7C6CCC(=O)NC6=O)cc5)CC4)cn3)c2OC)nn2c(-c3cn(C(C)C)nn3)cnc12 (stereo not shown)
> 100 nM

So what DC50 did CNc1cc(Nc2cccn(-c3ccc(C(=O)N4CCC(OCC#Cc5cccc6c5n(C)c(=O)n6C5CCC(=O)NC5=O)CC4)cn3)c2=O)nn2c(C(=O)N[C@@H]3C[C@@H]3F)cnc12 (stereo partly shown) get with TYK2 (Homo sapiens)?
> 100 nM

Now try CNc1cc(Nc2cccn(-c3ccc(C(=O)N(C)CC4CCN(Cc5cccc6c5n(C)c(=O)n6C5CCC(=O)NC5=O)CC4)cn3)c2=O)nn2c(C(=O)N[C@@H]3C[C@@H]3F)cnc12 (stereo partly shown) .
< 1 nM

Note, next up: CNc1cc(Nc2cccn(-c3cc(C(=O)NCCOCCOCCc4ccc5c(c4)n(C)c(=O)n5C4CCC(=O)NC4=O)ccn3)c2=O)nn2c(C(=O)N[C@@H]3C[C@@H]3F)cnc12 (stereo partly shown)
> 100 nM

Field entry: CNc1cc(Nc2cccn(-c3ccc(C(=O)N4CCC(CN(C)c5ccc6c(c5)n(C)c(=O)n6C5CCC(=O)NC5=O)CC4)cn3)c2=O)nn2c(C(=O)N[C@@H]3C[C@@H]3F)cnc12 (stereo partly shown)
> 100 nM

* * *

Reported DC50 is given for each of the following molecules.
Molecular target: TYK2 (Homo sapiens, UniProt P29597)
Sequence (P29597 whole entry): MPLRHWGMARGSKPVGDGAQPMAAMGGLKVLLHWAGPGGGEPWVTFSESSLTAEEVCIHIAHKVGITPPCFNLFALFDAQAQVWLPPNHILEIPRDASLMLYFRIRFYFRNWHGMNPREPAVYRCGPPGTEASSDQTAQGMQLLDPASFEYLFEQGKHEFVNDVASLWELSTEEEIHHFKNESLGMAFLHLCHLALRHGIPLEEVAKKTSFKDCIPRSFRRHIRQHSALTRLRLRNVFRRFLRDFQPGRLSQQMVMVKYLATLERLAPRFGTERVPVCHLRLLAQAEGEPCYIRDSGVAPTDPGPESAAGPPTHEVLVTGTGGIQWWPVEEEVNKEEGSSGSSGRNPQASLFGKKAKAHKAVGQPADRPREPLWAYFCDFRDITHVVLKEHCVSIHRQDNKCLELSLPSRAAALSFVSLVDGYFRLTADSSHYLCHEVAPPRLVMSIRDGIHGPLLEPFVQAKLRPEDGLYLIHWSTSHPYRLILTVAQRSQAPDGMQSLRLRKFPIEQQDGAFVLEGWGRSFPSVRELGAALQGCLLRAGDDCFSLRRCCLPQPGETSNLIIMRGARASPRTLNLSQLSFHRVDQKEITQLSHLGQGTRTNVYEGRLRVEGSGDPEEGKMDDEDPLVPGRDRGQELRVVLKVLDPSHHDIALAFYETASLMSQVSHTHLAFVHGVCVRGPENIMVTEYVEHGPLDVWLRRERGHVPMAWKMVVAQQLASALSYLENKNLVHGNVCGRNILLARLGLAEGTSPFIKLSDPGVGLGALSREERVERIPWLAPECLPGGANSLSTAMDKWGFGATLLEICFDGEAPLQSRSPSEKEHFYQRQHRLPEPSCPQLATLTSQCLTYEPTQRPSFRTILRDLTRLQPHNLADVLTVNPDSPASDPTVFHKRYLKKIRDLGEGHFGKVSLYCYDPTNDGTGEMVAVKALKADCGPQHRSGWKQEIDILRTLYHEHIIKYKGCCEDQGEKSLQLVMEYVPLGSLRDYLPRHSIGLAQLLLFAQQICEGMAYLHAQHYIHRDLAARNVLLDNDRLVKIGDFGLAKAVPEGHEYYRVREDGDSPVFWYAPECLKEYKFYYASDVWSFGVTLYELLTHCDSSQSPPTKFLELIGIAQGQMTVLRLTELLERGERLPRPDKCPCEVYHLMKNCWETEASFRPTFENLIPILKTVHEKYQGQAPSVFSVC
Assay: TYK2 degradation MSD assay in EBV-B cells
Assay type: cell-based
Set-up: endogenous in cells; host or cells: EBV-B cells
Conditions: 4 to 24 hours incubation, read-out: TYK2 MSD DC50 rating in EBV-B

Below: 4 molecules and their reported DC50.
CNc1cc(N2CCc3c(N4CCC(CN5CCN(c6ccc(-c7ccc8c(c7)n(C)c(=O)n8C7CCC(=O)NC7=O)cc6)CC5)CC4)cccc32)nn2c(C(=O)N[C@@H]3C[C@@H]3F)cnc12 (some centres unmarked) [Example K551]
1 to 10 nM
CNc1cc(N2CCOc3c(-c4ccc(CN5CCN(c6ccc(-c7ccc8c(c7)n(C)c(=O)n8C7CCC(=O)NC7=O)cc6)CC5)cn4)cccc32)nn2c(C(=O)N[C@@H]3C[C@@H]3F)cnc12 (some centres unmarked) [Example K491]
> 100 nM
CNC(=O)c1cnc(Nc2ccc(C(=O)NCCOCCOCCOCCOCCc3ccc4c(c3)n(C)c(=O)n4C3CCC(=O)NC3=O)cn2)cc1Nc1cccc(-c2ncc(F)cn2)c1OC (centres unmarked) [Example K113]
> 100 nM
CNc1cc(-c2cnn(C3CN(C(=O)NCCCCCCc4cccc5c4n(C)c(=O)n5C4CCC(=O)NC4=O)C3)c2)nn2c(C(=O)N[C@@H]3C[C@@H]3F)cnc12 (some centres unmarked) [Example K317]
> 100 nM

Now let's try a different one.
If you can, please state the reported DC50 value of CNc1cc(Nc2cccc(-c3ccc(CN4CCC(N5CC(c6cccc7c6n(C)c(=O)n7C6CCC(=O)NC6=O)C5)CC4)cn3)c2)nn2c(C(=O)N[C@@H]3C[C@@H]3F)cnc12 (some centres unmarked) [Example K414] .
> 100 nM

* * *

Biological target: TYK2 (Homo sapiens, UniProt P29597)
Experiment: TYK2 degradation MSD assay in EBV-B cells
Type: cell-based
Set-up: endogenous in cells; host or cells: EBV-B cells
Settings: 4 to 24 hours incubation, read-out: TYK2 MSD DC50 rating in EBV-B
MEASURED METRIC: DC50

Known results for molecules:
CNC(=O)c1cnc(Nc2ccc(C3CCN(Cc4ccc5c(c4)n(C)c(=O)n5C4CCC(=O)NC4=O)CC3)cn2)cc1Nc1cccc(-c2ncc(F)cn2)c1OC (centres unmarked) [Example K197]
> 100 nM
CNc1cc(Nc2cccc(-c3ccc(CN4CCN(c5ccc(-c6cccc7c6n(C)c(=O)n7C6CCC(=O)NC6=O)cc5)CC4)cn3)c2)nn2c(C(=O)N[C@@H]3C[C@@H]3F)cnc12 (some centres unmarked) [Example K513]
1 to 10 nM
Cn1c(=O)n(C2CCC(=O)NC2=O)c2cccc(CCOCCOCCOCCOCCNc3cc(Nc4cccn(-c5ccccn5)c4=O)nn4c(C(=O)N[C@@H]5C[C@@H]5F)cnc34)c21 (some centres unmarked) [Example K214]
> 100 nM

Could you now look at the following molecule, please?
// query DC50 value for entry CNc1cc(Nc2cccn(-c3ccc(C(=O)N4CCC(OC5CC(c6ccc7c(c6)n(C)c(=O)n7C6CCC(=O)NC6=O)C5)CC4)cn3)c2=O)nn2c(C(=O)N[C@@H]3C[C@@H]3F)cnc12 (some centres unmarked) [Example K393]
> 100 nM

* * *

Molecular target: TYK2 (Homo sapiens)
Assay: TYK2 degradation MSD assay in OCI-LY10 cells
Format: cell-based
Design: endogenous in cells; host or cells: EBV-B cells
Conditions: 4 to 24 hours incubation, read-out: TYK2 MSD DC50 rating in OCI-LY10
MEASURED METRIC: DC50

CNc1cc(Nc2cccn(-c3ccc(C(=O)N4CCN(CCOc5cccc(-c6ccc7c(c6)n(C)c(=O)n7C6CCC(=O)NC6=O)c5)CC4)cn3)c2=O)nn2c(C(=O)N[C@@H]3C[C@@H]3F)cnc12 (some centres unmarked)
< 1 nM
Cn1c(=O)n(C2CCC(=O)NC2=O)c2cccc(CCCCCCCCNc3cc(Nc4cccn(-c5ccccn5)c4=O)nn4c(C(=O)N[C@@H]5C[C@@H]5F)cnc34)c21 (some centres unmarked)
> 100 nM
Cn1c(=O)n(C2CCC(=O)NC2=O)c2ccc(-c3ccc(N4CCN(Cc5ccc(-c6cccc(Nc7cc(NC8CC8)n8ncc(C(=O)N[C@@H]9C[C@@H]9F)c8n7)c6)nc5)CC4)cc3)cc21 (some centres unmarked)
1 to 10 nM
CNc1cc(Nc2cccn(-c3ccc(C(=O)NCCCCc4cccc5c4n(C)c(=O)n5C4CCC(=O)NC4=O)cn3)c2=O)nn2c(C(=O)N[C@@H]3C[C@@H]3F)cnc12 (some centres unmarked)
> 100 nM

For the next question, use this molecule.
Any idea what its DC50 is? The molecule is CNC(=O)c1cnc(Nc2ccc(C(=O)NCCOCCOCCc3ccc4c(c3)n(C)c(=O)n4C3CCC(=O)NC3=O)cn2)cc1Nc1cccc(-c2ncc(F)cn2)c1OC (centres unmarked)
> 100 nM

* * *

Molecular target: TYK2 (Homo sapiens, UniProt P29597)
Assay: TYK2 degradation MSD assay in EBV-B cells
Type: cell-based
Design: endogenous in cells; host or cells: EBV-B cells
Details: 4 to 24 hours incubation, read-out: TYK2 MSD DC50 rating in EBV-B
MEASURED METRIC: DC50

Cn1c(=O)n(C2CCC(=O)NC2=O)c2ccc(CCOCCOCCOCCOCCNc3cc(Nc4cccn(-c5ccccn5)c4=O)nn4c(C(=O)NC5C[C@@H]5F)cnc34)cc21 (stereo partly drawn)
> 100 nM

Tell me reported DC50 for CNc1cc(Nc2cccn(-c3ccc(C(=O)N4CCN(CCc5ccc6c(c5)n(C)c(=O)n6C5CCC(=O)NC5=O)CC4)cn3)c2=O)nn2c(C(=O)N[C@@H]3C[C@@H]3F)cnc12 (stereo partly drawn) , tested with TYK2 (Homo sapiens, UniProt P29597).
> 100 nM

Param item: CNc1cc(-c2ccc(N3CCC(CN4CC5(CCN(c6cccc7c6n(C)c(=O)n7C6CCC(=O)NC6=O)CC5)C4)CC3)cc2)nn2c(C(=O)N[C@@H]3C[C@@H]3F)cnc12 (mixture of isomers)
> 100 nM
